// values below are reported IC50 (read off the curve)
target: T1, EGFRvIII on U87MG cells (human, UniProt P00533 298-1210); test: competition FACS on U87MG de2-7 cells expressing EGFRvIII; competitor Ab1-FITC at 100 nM
T1 construct: also called de2-7 EGFR
measurementName: IC50 (read off the curve)

INSERT INTO assay_data (binder, valuereported) VALUES
  ('Antibody K (AbK) (antibody, V domains shown, Full length IgG1) VH: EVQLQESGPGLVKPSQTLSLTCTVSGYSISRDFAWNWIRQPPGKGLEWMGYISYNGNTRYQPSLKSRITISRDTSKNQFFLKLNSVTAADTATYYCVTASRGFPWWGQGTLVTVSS VL: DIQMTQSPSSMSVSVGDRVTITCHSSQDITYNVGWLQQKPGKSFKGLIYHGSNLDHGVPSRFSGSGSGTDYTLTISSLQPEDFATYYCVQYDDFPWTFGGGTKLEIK', '~30 nM'),
  ('Antibody G (AbG) (antibody, V domains shown, Full length IgG1) VH: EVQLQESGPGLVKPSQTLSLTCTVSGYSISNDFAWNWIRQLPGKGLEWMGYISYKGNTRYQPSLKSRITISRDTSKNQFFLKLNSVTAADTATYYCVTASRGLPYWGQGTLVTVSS VL: DIQMTQSPSSMSVSVGDRVTITCHSSQDITYNIGWLQQKPGKSFKGLIYHGANLDDGVPSRFSGSGSGTDYTLTISSLQPEDFATYYCVQYDEFPWTFGGGTKLEIK', '~20 nM'),
  ('Antibody A (AbA) (antibody, human IgG1, kappa, V domains shown, IgG1) VH: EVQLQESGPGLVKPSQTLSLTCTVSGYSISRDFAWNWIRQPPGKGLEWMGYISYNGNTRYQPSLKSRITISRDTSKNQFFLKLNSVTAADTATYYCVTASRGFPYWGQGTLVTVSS VL: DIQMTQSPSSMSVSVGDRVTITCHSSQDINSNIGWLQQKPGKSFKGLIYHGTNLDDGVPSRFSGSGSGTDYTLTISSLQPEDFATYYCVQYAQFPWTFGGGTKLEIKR', '~30 nM'),
  ('Antibody P (AbP) (antibody, V domains shown, Full length IgG1) VH: EVQLQESGPGLVKPSQTLSLTCTVSGYSISHDFAWNWIRQPPGKGLEWMGYISYSGNTRYQPSLKSRITISRDTSKNQFFLKLNSVTAADTATYYCVTASWGLPWWGQGTLVTVSS VL: DIQMTQSPSSMSVSVGDRVTITCHSSQDINMNVGWLQQKPGKSFKGLIYHGAILDDGVPSRFSGSGSGTDYTLTISSLQPEDFATYYCVQYAEFPWTFGGGTKLEIK', '~30 nM');

Data credit: patent US20150337042A1
